# Experimental target: T1, human IL-12 (human, UniProt P29460 23-328; P29459 23-219)
# T1 construct: also called Interleukin-12
# T1 sequence 1: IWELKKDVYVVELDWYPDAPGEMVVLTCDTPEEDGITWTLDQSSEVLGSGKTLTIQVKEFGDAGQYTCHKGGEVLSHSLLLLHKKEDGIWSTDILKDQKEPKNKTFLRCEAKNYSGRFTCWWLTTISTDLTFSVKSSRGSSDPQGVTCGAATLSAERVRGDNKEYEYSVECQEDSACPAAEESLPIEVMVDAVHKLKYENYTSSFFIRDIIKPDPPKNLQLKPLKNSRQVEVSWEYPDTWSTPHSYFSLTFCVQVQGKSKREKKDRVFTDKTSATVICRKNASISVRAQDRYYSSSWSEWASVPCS
# T1 sequence 2: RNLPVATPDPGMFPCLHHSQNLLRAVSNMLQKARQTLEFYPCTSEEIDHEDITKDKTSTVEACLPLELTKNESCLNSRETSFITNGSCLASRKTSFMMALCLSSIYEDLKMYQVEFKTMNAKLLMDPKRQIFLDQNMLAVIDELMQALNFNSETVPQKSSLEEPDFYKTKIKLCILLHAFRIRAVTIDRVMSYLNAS
# Experiment notes: SPR (Biacore T200), 37 C, pH 7.4; captured antibody, IL-12 analyte
Measure: Kd (nM)
# number only, unit nM dropped from output

Worked cases, answers included:
1. Anti-IL-12 antibody Ab1 variant F100aI VH/Y49A, F98L VL (antibody, name in Kabat numbering, V domains shown, Ab1 with VH/VL interface substitutions; Kabat numbering) VH: QVQLVQSGAEVKKPGSSVKVSCKASGGTFSDYYLHWVRQAPGQGLEWMGWIDPENGDTEYAPKFQGRVTITADESTSTAYMELSSLRSEDTAVYYCARNKELRYIDVWGQGTLVTVSS VL: DIVMTQSPLSLPVTPGEPASISCRASQSISINLHWYQQKPGQAPRLLIAFASQSISGVPSRFSGSGSGTDFTLTISSLQPEDFATYYCQQSNSFPLTLGQGTKVEIKR    1.44
2. Anti-IL-12 antibody Ab1 variant L45Q VH/Y49A, F98M VL (antibody, name in Kabat numbering, V domains shown, Ab1 with VH/VL interface substitutions; Kabat numbering) VH: QVQLVQSGAEVKKPGSSVKVSCKASGGTFSDYYLHWVRQAPGQGQEWMGWIDPENGDTEYAPKFQGRVTITADESTSTAYMELSSLRSEDTAVYYCARNKELRYFDVWGQGTLVTVSS VL: DIVMTQSPLSLPVTPGEPASISCRASQSISINLHWYQQKPGQAPRLLIAFASQSISGVPSRFSGSGSGTDFTLTISSLQPEDFATYYCQQSNSFPLTMGQGTKVEIKR    3.27
3. Anti-IL-12 antibody Ab1 variant -/Y87M VL (antibody, V domains shown, Ab1 with VH/VL interface substitutions; Kabat numbering) VH: QVQLVQSGAEVKKPGSSVKVSCKASGGTFSDYYLHWVRQAPGQGLEWMGWIDPENGDTEYAPKFQGRVTITADESTSTAYMELSSLRSEDTAVYYCARNKELRYFDVWGQGTLVTVSS VL: DIVMTQSPLSLPVTPGEPASISCRASQSISINLHWYQQKPGQAPRLLIYFASQSISGVPSRFSGSGSGTDFTLTISSLQPEDFATYMCQQSNSFPLTFGQGTKVEIKR    1.22

Given the entry Anti-IL-12 antibody Ab1 variant V37S, Y91M VH/A43Q, Y49A VL (antibody, name in Kabat numbering, V domains shown, Ab1 with VH/VL interface substitutions; Kabat numbering) VH: QVQLVQSGAEVKKPGSSVKVSCKASGGTFSDYYLHWSRQAPGQGLEWMGWIDPENGDTEYAPKFQGRVTITADESTSTAYMELSSLRSEDTAVYMCARNKELRYFDVWGQGTLVTVSS VL: DIVMTQSPLSLPVTPGEPASISCRASQSISINLHWYQQKPGQQPRLLIAFASQSISGVPSRFSGSGSGTDFTLTISSLQPEDFATYYCQQSNSFPLTFGQGTKVEIKR , report its measured Kd.
1.79

Consider next the binder Anti-IL-12 antibody Ab1 variant V37S, F100aI VH/A43Q, Y49A VL (antibody, name in Kabat numbering, V domains shown, Ab1 with VH/VL interface substitutions; Kabat numbering) VH: QVQLVQSGAEVKKPGSSVKVSCKASGGTFSDYYLHWSRQAPGQGLEWMGWIDPENGDTEYAPKFQGRVTITADESTSTAYMELSSLRSEDTAVYYCARNKELRYIDVWGQGTLVTVSS VL: DIVMTQSPLSLPVTPGEPASISCRASQSISINLHWYQQKPGQQPRLLIAFASQSISGVPSRFSGSGSGTDFTLTISSLQPEDFATYYCQQSNSFPLTFGQGTKVEIKR in the same way.
1.12

Where do the numbers come from? From patent US20240343771A1.
